Measured values drawn from patent US20190040025A1 for this set.

# measurement-notes: Pharmacokinetic (PK) analysis of rat plasma
# Assay type: in vivo
# recorded-conditions: Sprague-Dawley, po, 20 mg/kg, SD rats, single gavage, 20 mg/10 mL/kg
Could you mark each record Criterion met if its half-life falls strictly under 4 h, and Criterion not met if it equals or exceeds it?

half-life under 4 h? Item: "C[S@@](=O)(CCNc1nonc1/C(=N/O)Nc1ccc(F)c(Br)c1)=NS(=O)(=O)C1CC1"
Criterion met

half-life under 4 h? Item: CS(=O)(CCNc1nonc1/C(=N/O)Nc1ccc(F)c(Br)c1)=NS(=O)(=O)C1CC1 (stereo not drawn)
Criterion met

half-life under 4 h? Item: "NC(=O)C(=O)NCCNc1nonc1/C(=N/O)Nc1ccc(F)c(Br)c1"
Criterion met

----------
# measured-on: indoleamine 2,3-dioxygenase (IDO) in HeLa cells (Homo sapiens, UniProt P14902)
# Construct: Interferon γ induced the expression of IDO in HeLa cells
# Sequence (P14902 whole entry): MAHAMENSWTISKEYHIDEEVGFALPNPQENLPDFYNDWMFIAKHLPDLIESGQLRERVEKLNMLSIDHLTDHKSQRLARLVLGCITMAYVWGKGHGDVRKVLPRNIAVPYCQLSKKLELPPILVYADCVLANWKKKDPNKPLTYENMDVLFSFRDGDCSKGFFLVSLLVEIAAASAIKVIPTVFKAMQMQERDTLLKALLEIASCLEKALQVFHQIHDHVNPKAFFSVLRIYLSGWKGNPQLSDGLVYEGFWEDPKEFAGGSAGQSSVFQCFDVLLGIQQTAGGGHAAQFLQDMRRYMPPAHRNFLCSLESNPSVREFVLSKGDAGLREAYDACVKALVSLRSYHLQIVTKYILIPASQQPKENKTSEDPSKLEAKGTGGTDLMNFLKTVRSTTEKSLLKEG
# measurement-notes: Cell model test for IDO activity inhibition (interferon γ induced HeLa cells)
# recorded-conditions: interferon γ 50 ng/mL, 24 hours, read-out: Cytological Test IC50
reported-property: IC50 (µM)
Unit µM implied. Number only.

Past entries and their recorded results:
CCNC(=O)C(=O)NCCNc1nonc1/C(=N/O)Nc1ccc(F)c(Br)c1: 0.02
CNC(=O)C(=O)NCCNc1nonc1/C(=N/O)Nc1ccc(F)c(Br)c1: 0.018
C[S@@](=O)(CCNc1nonc1/C(=N/O)Nc1ccc(F)c(Br)c1)=NS(=O)(=O)C1CC1: 0.011
NS(=O)(=O)NC1CCC(Nc2nonc2/C(=N/O)Nc2ccc(F)c(Br)c2)CC1 (centres unmarked): 0.037
CS(=O)(CCNc1nonc1/C(=N/O)Nc1ccc(F)c(Br)c1)=NS(=O)(=O)C1CC1 (centres unmarked): 0.01

Output IC50 of "NC(=O)C(=O)NCCNc1nonc1/C(=N/O)Nc1ccc(F)c(Br)c1"
0.015

Output IC50 of CN=S(C)(=O)CCNc1nonc1/C(=N/O)Nc1ccc(F)c(Br)c1 (centres unmarked)
0.019

Output IC50 of "C[S@](=O)(CCNc1nonc1/C(=N/O)Nc1ccc(F)c(Br)c1)=NS(=O)(=O)C1CC1"
0.009

Output IC50 of "O=C(NCCNc1nonc1/C(=N/O)Nc1ccc(F)c(Br)c1)C(=O)NC1CC1"
0.053

Output IC50 of NS(=O)(=O)NC1CC(Nc2nonc2/C(=N/O)Nc2ccc(F)c(Br)c2)C1 (centres unmarked)
0.038

Output IC50 of CCS(=O)(CCNc1nonc1/C(=N/O)Nc1ccc(F)c(Br)c1)=NC (centres unmarked)
0.016

Output IC50 of Cc1ccc(S(=O)(=O)N=S(C)(=O)NCCNc2nonc2C(=NO)Nc2ccc(F)c(Br)c2)cc1 (centres unmarked)
0.047

Output IC50 of CS(=O)(=O)N=S(C)(=O)CCNc1nonc1/C(=N/O)Nc1ccc(F)c(Br)c1 (centres unmarked)
0.012

Output IC50 of "O=C(NO)C(=O)NCCNc1nonc1/C(=N/O)Nc1ccc(F)c(Br)c1"
0.033

----------
# measurement-notes: Pharmacokinetic (PK) analysis of rat plasma
# Format: in vivo
# recorded-conditions: Sprague-Dawley, po, 20 mg/kg, SD rats, single gavage, 20 mg/10 mL/kg
Each entry gets -1 if its AUC(0-inf) stays under 5000 ng·h/mL, and 1 if its AUC(0-inf) is 5000 ng·h/mL or above.

Completed entries (count: 5):
C[S@](=O)(CCNc1nonc1/C(=N/O)Nc1ccc(F)c(Br)c1)=NS(=O)(=O)C1CC1: -1
CS(=O)(CCNc1nonc1/C(=N/O)Nc1ccc(F)c(Br)c1)=NS(=O)(=O)C1CC1 (stereo not drawn): 1
NC(=O)C(=O)NCCNc1nonc1/C(=N/O)Nc1ccc(F)c(Br)c1: 1
C[S@@](=O)(CCNc1nonc1/C(=N/O)Nc1ccc(F)c(Br)c1)=NS(=O)(=O)C1CC1: 1
NS(=O)(=O)NCCNc1nonc1C(=NO)Nc1ccc(F)c(Br)c1 [INCB-24360, Epacadostat, reference compound]: -1

For the next question, use this molecule.
Evaluate CS(=O)(=O)N=S(C)(=O)CCNc1nonc1/C(=N/O)Nc1ccc(F)c(Br)c1 (stereo not drawn) : AUC(0-inf) at minimum 5000 ng·h/mL?
1
